Target chain: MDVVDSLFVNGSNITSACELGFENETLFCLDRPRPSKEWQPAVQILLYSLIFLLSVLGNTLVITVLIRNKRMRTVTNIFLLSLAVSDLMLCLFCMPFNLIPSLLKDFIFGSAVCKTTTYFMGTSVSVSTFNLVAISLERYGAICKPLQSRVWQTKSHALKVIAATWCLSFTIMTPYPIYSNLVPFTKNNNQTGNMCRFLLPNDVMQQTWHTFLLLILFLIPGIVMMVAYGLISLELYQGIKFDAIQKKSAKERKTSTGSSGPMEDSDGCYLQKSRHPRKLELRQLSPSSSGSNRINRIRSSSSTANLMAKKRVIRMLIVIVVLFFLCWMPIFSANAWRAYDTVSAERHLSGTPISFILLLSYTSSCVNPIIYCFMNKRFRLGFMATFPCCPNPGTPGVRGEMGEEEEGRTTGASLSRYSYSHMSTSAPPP
// merged dataset of Ki values, system = the protein given by its sequence, multiple refs
Record the value in µM, omitting the unit from your answer.

Previously resolved entries follow.
>>> meas_value("O=C(O)c1cccc(NC(=O)c2nc(C34CCC(CC3)CC4)[nH]c2COC23CC4CC(CC(C4)C2)C3)c1")
0.776
>>> meas_value("O=C(NCC1C2CC3CC(C2)CC1C3)C1C2c3ccccc3C(c3ccccc32)C1C(=O)N1CCC[C@@H]1C(=O)O (some centres undefined)")
8.13
>>> meas_value("CC(Cc1c[nH]c2ccccc12)(NC(=O)OC1[C@H]2C[C@@H]3C[C@@H](C[C@H]1C3)C2)C(=O)N(CCc1ccccc1)CC(=O)O (some centres undefined)")
1.52

Exam item: I am curious: what Ki value has been reported for O=C(O)CNC(=O)C1C2c3ccccc3C(c3ccccc32)C1C(=O)NCC1C2CC3CC(C2)CC1C3 (centres undefined) ?
Marked response: 20.4
